assaySystem: Mcl-1/Bim interaction, recombinant human Mcl-1 (171-327) (Homo sapiens)
Construct: made in house
Sequence (Q07820 171-327): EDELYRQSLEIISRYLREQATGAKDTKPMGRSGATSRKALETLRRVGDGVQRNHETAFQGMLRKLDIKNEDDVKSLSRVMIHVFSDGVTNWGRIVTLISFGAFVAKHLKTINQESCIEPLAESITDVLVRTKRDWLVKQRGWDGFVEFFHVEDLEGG
protocolText: Cell free Mcl-1: Bim Affinity Assay (Mcl-1 HTRF)
Assay type: binding
settings: TR-FRET, 0.1 nM Mcl-1 (171-327), 0.05 nM biotin-Bim (51-76)
Method: Cell free Mcl-1: Bim Affinity Assay (Mcl-1 HTRF) The inhibition of the Mcl-1/Bim interaction was measured using a time-resolved fluorescence resonance energy transfer (TR-FRET) assay. […] A biotinylated peptide derived from human Bim (residues 51-76) was purchased from CPC Scientific (San Jose, CA). […] The reaction plates were further incubated overnight and then were read on an Envision® multimode reader (PerkinElmer). […]
recordedEndpoint: pIC50
One number for each entry, as −log10 of the molar value.

Below: 2 compounds and their reported pIC50.
compound	pIC50
CC[C@@H]1CC/C=C/[C@H](OCCOC)[C@@H]2CC[C@H]2CN2C[C@@]3(CCCc4cc(Cl)ccc43)COc3ccc(cc32)C(=O)NS1(=O)=O	9.12
COc1ccc(CN2[C@@H](C)C/C=C\[C@H](O)[C@@H]3CC[C@H]3CN3C[C@@]4(CCCc5cc(Cl)ccc54)COc4ccc(cc43)C(=O)NS2(=O)=O)cc1 (single isomer, unassigned)	7.41

Entry C[C@@H]1[C@H](C)/C=C/[C@H](O)[C@@H]2CC[C@H]2CN2C[C@@]3(CCCc4cc(Cl)ccc43)COc3ccc(cc32)C(=O)NS(=O)(=O)[C@H]1C (single isomer, unassigned) , Mcl-1/Bim interaction, recombinant human Mcl-1 (171-327) (Homo sapiens) data, pIC50 value: 7.45

---

Field: pIC50. Provide a value for each of the compounds that follow.
assaySystem: Mcl-1/Bim interaction, recombinant human Mcl-1 (171-327) (Homo sapiens)
Construct: made in house
protocolText: Cell free Mcl-1: Bim Affinity Assay (Mcl-1 HTRF)
Assay type: binding
settings: cell free Mcl-1:Bim TR-FRET, recombinant human Mcl-1 (171-327)
Give bare numbers, as −log10 of the molar value.

The following compounds have reported results that may help.
compound	recordedEndpoint	reported
O=C1NS(=O)(=O)C[C@H](c2ccccc2)C/C=C/[C@H](O)[C@@H]2CC[C@H]2CN2C[C@@]3(CCCc4cc(Cl)ccc43)COc3ccc1cc32 (single isomer, unassigned)	pIC50	7.39
C[C@@H]1[C@@H](C)C/C=C/[C@H](OCCN2CCCCC2)[C@@H]2CC[C@H]2CN2C[C@@]3(CCCc4cc(Cl)ccc43)COc3ccc(cc32)C(=O)NS1(=O)=O	pIC50	9.31
COC[C@@]1(C)C/C=C/[C@H](O)[C@@H]2CC[C@H]2CN2C[C@@]3(CCCc4cc(Cl)ccc43)COc3ccc(cc32)C(=O)NS1(=O)=O (single isomer, unassigned)	pIC50	8.76
C[C@@H]1C/C=C/[C@H](O)[C@@H]2CC[C@H]2CN2C[C@@]3(CCCc4cc(Cl)ccc43)COc3ccc(cc32)C(=O)NS1(=O)=O	pIC50	9.34

Record C[C@H](O)C[C@H]1CC/C=C/[C@H](O)[C@@H]2CC[C@H]2CN2C[C@@]3(CCCc4cc(Cl)ccc43)COc3ccc(cc32)C(=O)NS1(=O)=O (single isomer, unassigned) has Mcl-1/Bim interaction, recombinant human Mcl-1 (171-327) (Homo sapiens) pIC50 equal to 8.46
